systemName: Recombinant human Prak (Homo sapiens, UniProt Q8IW41)
Construct: His6
Sequence (Q8IW41 1-471 isoform Q8IW41-2): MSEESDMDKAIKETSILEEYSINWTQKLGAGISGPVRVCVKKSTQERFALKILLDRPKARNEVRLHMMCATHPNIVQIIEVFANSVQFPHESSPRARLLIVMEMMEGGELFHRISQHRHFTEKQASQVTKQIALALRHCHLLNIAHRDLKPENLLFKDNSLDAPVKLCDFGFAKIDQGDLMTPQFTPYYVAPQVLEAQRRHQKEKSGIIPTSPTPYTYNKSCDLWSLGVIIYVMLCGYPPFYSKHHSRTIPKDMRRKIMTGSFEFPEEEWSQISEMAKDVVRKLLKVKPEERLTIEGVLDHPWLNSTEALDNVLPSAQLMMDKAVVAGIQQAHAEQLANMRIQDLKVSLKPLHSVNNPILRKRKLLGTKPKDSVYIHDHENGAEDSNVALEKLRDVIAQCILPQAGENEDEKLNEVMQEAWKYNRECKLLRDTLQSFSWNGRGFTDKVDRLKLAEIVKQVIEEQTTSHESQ
experimentSummary: In vitro kinase assay Prak (HSP27 phosphorylation, 33P-ATP)
reportedConditions: activated recombinant human Prak, His-HSP27 substrate, 1 h at room temperature
Description: Recombinant human Prak was expressed in E. coli as His6-tagged protein substantially as described for Mnk1 by Tschopp et al. (Tschopp et al. (2000) Phoshorylation of eIF-4E on Ser 209 in response to mitogenic and inflammatory stimuli is faithfully detected by specific antibodies. Molecular Cell Biology Res. Comm. 3, 205-211). Phospho-p38a and His6-Hsp27 was prepared substantially as described (New et al. and Tschopp et al. ibid). […]

{"columns": ["chemicalStructure", "systemName", "IC50 / nM"],
 "data": [
  ["O=S(=O)(c1ccc(Nc2nccc(N3CCCc4c(O)cccc43)n2)cc1)N1CCCCC1", "Recombinant human Prak (Homo sapiens, UniProt Q8IW41)", 1100]
]}

---

experimentSummary: Cytotoxicity in THP-1 cells (MTT)
Type: cell-based
reportedConditions: human, THP-1 cells stimulated with LPS/IFNγ, LPS/IFN stimulated

{"columns": ["chemicalStructure", "IC50 at 24 h"],
 "data": [
  ["O=S(=O)(c1ccc(Nc2nccc(N3CCCc4c(O)cccc43)n2)cc1)N1CCCCC1", "> 30 µM"]
]}
